# System: E28 (patient-derived glioblastoma stem cells of classical subtype)
# test method notes: surviving fraction (nuclei count normalised to DMSO); higher = more cells surviving (less toxic)
# test parameters: 4.1 nM; exposure time: 72 h
Where a name gives a salt, the structure may show the parent alone.
Provide the reported surviving fraction of each item.
Output spec: single numeric token, no unit.

Tell me the measured surviving fraction of Clc1ccc(COC(Cn2ccnc2)c2ccc(Cl)cc2Cl)cc1 (stereo not drawn) [Econazole nitrate] , please.
1.06

# lookup: surviving fraction of Cc1cc(Nc2cc(CN3CCOCC3)c3nc(C)c(Cc4ccc(Cl)cc4F)n3n2)n[nH]1
1.03

Bench note: what surviving fraction did O=C(Oc1cccc2cccnc12)c1ccccc1 show?
0.997

Which value of surviving fraction has been reported for Nc1ccn([C@H]2CC[C@@H](CO)O2)c(=O)n1 in the records?
1.04

Fill in the blank: the reported surviving fraction of CN1C(=O)OC(C)(C)C1=O is ____.
0.994

Give its surviving fraction value. Item: CC[C@@]1(O)C(=O)OCc2c1cc1n(c2=O)Cc2cc3cc(O)ccc3nc2-1 [Hydroxy Camptothecine]
0.341

If you can, please state the reported surviving fraction value of Cc1cc(Nc2cc(N3CCN(C)CC3)nc(Sc3ccc(NC(=O)C4CC4)cc3)n2)n[nH]1 .
0.971

Please report the recorded surviving fraction for CC(C)C[C@H]1C(=O)N2CCC[C@H]2[C@]2(O)O[C@](NC(=O)[C@@H]3C=C4c5cccc6[nH]c(Br)c(c56)C[C@H]4N(C)C3)(C(C)C)C(=O)N12 [Bromocryptine mesylate] .
1.1

====

# System: E21 (patient-derived glioblastoma stem cells of mesenchymal subtype);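 further: cell Painting imaging in 384-well plates, CellProfiler features reduced to at least 20 principal components, Euclidean distance versus same-plate DMSO vehicle wells (0.1% v/v), median over six images per well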
# test method notes: phenotypic distance (Euclidean, principal components) from DMSO controls (arbitrary units); higher = stronger morphological change
# test parameters: 3000 nM; exposure time: 72 h
Structures can show the parent of a compound that is named as a salt.
quantity: phenotypic distance

Entry under review: C[C@@H]1CN([C@H]2CC[C@](C#N)(c3ccc(F)cc3)CC2)CC[C@]1(C(=O)O)c1ccccc1 [Levocabastine hydrochloride] . Reported phenotypic distance?
3.41

Look up phenotypic distance: C=CC(=O)Nc1cc(Nc2nccc(-c3cn(C)c4ccccc34)n2)c(OC)cc1N(C)CCN(C)C [Osimertinib mesylate]
4.6

Entry C#C[C@]1(O)CC[C@H]2[C@@H]3CCC4=CCCC[C@@H]4[C@H]3CC[C@@]21C : reported phenotypic distance = ?
1.35

Return reported phenotypic distance; argument: NC(=O)c1cccc2cn(-c3ccc([C@@H]4CCCNC4)cc3)nc12
0.988

====

# System: E57 (patient-derived glioblastoma stem cells of mesenchymal subtype)
# test method notes: surviving fraction (nuclei count normalised to DMSO); higher = more cells surviving (less toxic)
# test parameters: 37 nM; exposure time: 72 h
quantity: surviving fraction

Consider the compound CCCCCCCCCCCCCC(=O)O[C@@H]1[C@@H](C)[C@@]2(O)[C@@H](C=C(CO)C[C@]3(O)C(=O)C(C)=C[C@@H]23)[C@@H]2C(C)(C)[C@]12OC(C)=O [Phorbol 12-myristate 13-acetate] and give its measured surviving fraction.
0.374

Find the recorded surviving fraction belonging to Clc1ccc(COC(Cn2ccnc2)c2ccc(Cl)cc2Cl)cc1 (centres undefined) [Econazole nitrate] and report it.
1.07

Need surviving fraction of Nc1nc(=O)c2nc(CNc3ccc(C(=O)N[C@@H](CCC(=O)O)C(=O)O)cc3)cnc2[nH]1 , thanks.
0.994

For the compound Cc1cc(CN2CCN(c3c(Br)cnc4nc(-c5ccc(N6CCN(C)CC6)cc5)[nH]c34)CC2)no1 , what surviving fraction is on record?
0.906

Entry source: the supplement of paper PMC13207355
